experiment: Toxicity in po dosed athymic Hsd:Foxn1nu mouse administered twice daily for 5 days; format: organism-based; conditions: in vivo
Measurement type: MTD at 120 h (mg/kg)
Just the number in mg/kg, nothing appended.

Q) Output MTD at 120 h of `CC(=O)N1c2ccc(-c3ccc(N4CCS(=O)(=O)CC4)cc3)cc2N(C(=O)C2CC2)C[C@@H]1C`
A) 12.5

---

target: Bromodomain-containing protein 4 (Homo sapiens); experiment: Inhibition of His-epitope tagged BRD4 bromodomain 1 (44 to 168 residues) (unknown origin) using biotinylated K5,8,12,16 tetra-acetylated histone H4 (1 to 20 residues) peptide as substrate measured after 1 hr by Alphascreen assay
Record form. Attribute: log10 of IC50. Fill in for each entry.
Note: values are log10 of IC50 expressed in µM.

Q) Quote log10 of IC50 reported for `CNC(=O)c1cccc(-c2ccc3c(c2)N(C(=O)c2ccco2)C[C@H](C)N3C(C)=O)c1` please.
A) -0.10

Q) Return value of log10 of IC50 for input `CC(=O)N1c2ccc(-c3ccccc3)cc2N(C(=O)c2ccco2)C[C@@H]1C` , no commentary.
A) 0.20

Q) Annotate the molecule `CC(=O)N1c2ccc(-c3ccc(C(=O)N4CCNCC4)cc3)cc2N(C(=O)C2CC2)C[C@@H]1C` with its measured log10 of IC50.
A) -0.42

Q) Find the measured log10 of IC50 of `CC(=O)N1c2ccc(-c3cnn(C(C)C)c3)cc2N(C(=O)C2CC2)C[C@@H]1C` and report it.
A) -0.38

Q) Give the reported log10 of IC50 for this molecule. `CC(=O)N1c2ccc(-c3cnn(C4COC4)c3)cc2N(C(=O)C2CC2)C[C@@H]1C`
A) -0.43

Q) Kindly indicate its recorded log10 of IC50. Item: `CC(=O)N1c2ccc(-c3ccc(S(C)(=O)=O)cc3)cc2N(C(=O)c2ccco2)C[C@@H]1C`
A) 0.20

Q) Specify reported log10 of IC50 for the molecule shown: `CC(=O)N1c2ccc(-c3cnn(C)c3)cc2N(C(=O)c2ccco2)C[C@@H]1C`
A) -0.42

Q) Please list log10 of IC50 recorded for the molecule `CC(=O)N1c2ccc(-c3cnn(C4CNC4)c3)cc2N(C(=O)C2CC2)C[C@@H]1C`
A) -1.22

Q) Please report log10 of IC50 for the following molecule: `CCC(=O)N1c2ccc(-c3ccc(S(C)(=O)=O)cc3)cc2N(C(=O)c2ccco2)C[C@@H]1C`
A) 0.15

Q) Supply reported log10 of IC50 belonging to this molecule: `CC(=O)N1c2ccc(-c3ccc(N4CCS(=O)(=O)CC4)cc3)cc2N(C(=O)C2CC2)C[C@@H]1C`
A) -1.00

Q) Tell me measured log10 of IC50 for `COC(=O)N1c2ccc(-c3ccc(S(C)(=O)=O)cc3)cc2N(C(=O)c2ccco2)C[C@@H]1C` please.
A) -0.19

Q) // fetch log10 of IC50 given entry `CC(=O)N1c2ccccc2N(C(=O)c2ccco2)C[C@@H]1C`
A) 1.15

Q) Indicate the recorded log10 of IC50 value for this molecule: `CC(=O)N1c2ccc(-c3ccc(S(C)(=O)=O)cc3)cc2N(C(=O)C2CC2)C[C@@H]1C`
A) 0.23

Q) State its log10 of IC50 for this molecule: `CC(=O)N1c2ccccc2N(C(=O)C2CCCC2)C[C@@H]1C`
A) 1.63

Q) Complete the entry with log10 of IC50 for `C[C@H]1CN(C(=O)c2ccco2)c2cc(-c3ccc(S(C)(=O)=O)cc3)ccc2N1C(=O)C1CC1`
A) -0.12

Q) Complete the entry with log10 of IC50 for `CC(=O)N1c2ccc(-c3ccc(S(C)(=O)=O)cc3)cc2N(C(=O)OC(C)C)C[C@@H]1C`
A) -0.59
